Some compounds, each annotated with its measured pest or weed control at 100 ppm.
Test system: Puccinia triticina
experiment.notes: Wheat Brown Rust fungicidal activity (PUCCRT)
Type: in vivo
measurement.conditions: Puccinia triticina, 72 h, 3 Day Curative, rate 100 ppm, read-out: Disease control PUCCRT 3DC

| structure.smiles | pest or weed control at 100 ppm |
| --- | --- |
| COc1ccnc(C(=O)N[C@H]2COC[C@H](CCc3ccccc3)[C@@H](OC(=O)C3CC3)[C@H](C)OC2=O)c1O | 0 to 80% |
| COc1ccnc(C(=O)N[C@H]2COC[C@H](Cc3cc(F)c(F)c(F)c3)[C@@H](OCC(C)C)[C@H](C)OC2=O)c1OC(C)=O | 80 to 100% |
| COc1ccnc(C(=O)N[C@H]2COC[C@H](Cc3ccc(Cl)cc3Cl)[C@@H](OCC(C)C)[C@H](C)OC2=O)c1O | 80 to 100% |
| COc1ccnc(C(=O)N[C@H]2COC[C@H](Cc3ccc(C)cc3)[C@@H](OC(=O)C3CC3)[C@H](C)OC2=O)c1OC(C)=O | 80 to 100% |
| COc1ccnc(C(=O)N[C@H]2COC[C@H](Cc3ccc(F)cc3)[C@@H](Oc3ccccc3)[C@H](C)OC2=O)c1OC(C)=O | 80 to 100% |
| COc1ccnc(C(=O)N[C@H]2COC[C@H](CCc3ccccc3)[C@@H](OC(=O)C3CC3)[C@H](C)OC2=O)c1OCOC(C)=O | 80 to 100% |
| CCCCCO[C@@H]1[C@@H](CC2CCCC2)COC[C@H](NC(=O)c2nccc(OC)c2O)C(=O)O[C@H]1C | 80 to 100% |
| COc1ccnc(C(=O)N[C@H]2COC[C@H](Cc3ccc(C(F)(F)F)cc3)[C@@H](OC(=O)C(C)C)[C@H](C)OC2=O)c1OC(C)=O | 80 to 100% |
| COc1ccnc(C(=O)N[C@H]2COC[C@H](Cc3ccc(Cl)cc3Cl)[C@@H](OC(=O)C(C)C)[C@H](C)OC2=O)c1OCOC(C)=O | 80 to 100% |
| COc1ccnc(C(=O)N[C@H]2COC[C@H](CC3CCCC3)[C@@H](OC(=O)C(C)C)[C@H](C)OC2=O)c1O | 0 to 80% |
| CCCCCO[C@@H]1[C@@H](Cc2ccc(C)cc2)COC[C@H](NC(=O)c2nccc(OC)c2O)C(=O)O[C@H]1C | 0 to 80% |
| COc1ccnc(C(=O)N[C@H]2COC[C@H](CCC(C)C)[C@@H](OCC(C)C)[C@H](C)OC2=O)c1O | 80 to 100% |
| CCCO[C@@H]1[C@@H](Cc2ccc(C(F)(F)F)cc2)COC[C@H](NC(=O)c2nccc(OC)c2O)C(=O)O[C@H]1C | 0 to 80% |

* * *

System: Puccinia triticina
experiment.notes: Wheat Brown Rust fungicidal activity (PUCCRT)
Format: in vivo
measurement.conditions: Puccinia triticina, 72 h, 3 Day Curative, rate 100 ppm, read-out: Disease control PUCCRT 3DC

| structure.smiles | tested.on | pest or weed control at 100 ppm |
| --- | --- | --- |
| COc1ccnc(C(=O)N[C@H]2COC[C@H](Cc3cccc4ccccc34)[C@@H](Oc3ccc(C)cc3)[C@H](C)OC2=O)c1O | Puccinia triticina | 0 to 80% |
| COc1ccnc(C(=O)N[C@H]2COC[C@H](Cc3ccc(F)cc3)[C@@H](OCC(C)C)[C@H](C)OC2=O)c1O | Puccinia triticina | 80 to 100% |
| COc1ccnc(C(=O)N[C@H]2COC[C@H](Cc3ccc(C)cc3)[C@@H](OCC(C)C)[C@H](C)OC2=O)c1OCOC(C)=O | Puccinia triticina | 80 to 100% |
| COc1ccnc(C(=O)N[C@H]2COC[C@H](Cc3cccc4ccccc34)[C@@H](OCCCC(F)(F)F)[C@H](C)OC2=O)c1OCOC(C)=O | Puccinia triticina | 80 to 100% |
| COc1ccnc(C(=O)N[C@H]2COC[C@H](Cc3ccc(C(F)(F)F)cc3)[C@@H](OCC(C)C)[C@H](C)OC2=O)c1OCOC(C)=O | Puccinia triticina | 80 to 100% |
| COc1ccnc(C(=O)N[C@H]2COC[C@H](Cc3ccc(C(F)(F)F)cc3)[C@@H](OC3CCCC3)[C@H](C)OC2=O)c1OC(C)=O | Puccinia triticina | 0 to 80% |
